System: RARg:RXRa (NR concentration 270 nM, RXRa partner concentration 90 nM)
Assay: PBM binding z-score (relative to random genomic background probes); higher = stronger binding; sequences stand for … in GC…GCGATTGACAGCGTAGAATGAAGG
quantity_measured: PBM binding z-score

| biosequence | study_system | value |
| --- | --- | --- |
| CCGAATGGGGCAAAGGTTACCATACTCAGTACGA | RARg:RXRa (NR concentration 270 nM, RXRa partner concentration 90 nM) | 3.65 |
| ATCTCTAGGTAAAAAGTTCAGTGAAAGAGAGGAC | RARg:RXRa (NR concentration 270 nM, RXRa partner concentration 90 nM) | 2.69 |
| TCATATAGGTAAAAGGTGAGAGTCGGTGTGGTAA | RARg:RXRa (NR concentration 270 nM, RXRa partner concentration 90 nM) | 1.39 |
| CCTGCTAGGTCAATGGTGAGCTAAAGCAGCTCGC | RARg:RXRa (NR concentration 270 nM, RXRa partner concentration 90 nM) | 3.3 |
| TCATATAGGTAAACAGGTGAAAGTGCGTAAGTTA | RARg:RXRa (NR concentration 270 nM, RXRa partner concentration 90 nM) | 0.642 |
| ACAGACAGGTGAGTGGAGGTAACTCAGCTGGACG | RARg:RXRa (NR concentration 270 nM, RXRa partner concentration 90 nM) | 0.417 |
| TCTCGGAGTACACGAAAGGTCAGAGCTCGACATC | RARg:RXRa (NR concentration 270 nM, RXRa partner concentration 90 nM) | 3.91 |
| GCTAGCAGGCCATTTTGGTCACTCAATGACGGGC | RARg:RXRa (NR concentration 270 nM, RXRa partner concentration 90 nM) | -0.296 |
| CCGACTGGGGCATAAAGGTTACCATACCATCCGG | RARg:RXRa (NR concentration 270 nM, RXRa partner concentration 90 nM) | 1.92 |
| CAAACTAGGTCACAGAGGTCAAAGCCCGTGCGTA | RARg:RXRa (NR concentration 270 nM, RXRa partner concentration 90 nM) | 7.25 |

----------
Test system: LXRb:RXRa (NR concentration 270 nM, RXRa partner concentration 90 nM)
Test: PBM binding z-score (relative to random genomic background probes); higher = stronger binding; sequences stand for … in GC…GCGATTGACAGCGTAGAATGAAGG
sequences and their reported PBM binding z-score

| biosequence | PBM binding z-score |
| --- | --- |
| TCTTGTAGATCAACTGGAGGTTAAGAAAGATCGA | 1.22 |
| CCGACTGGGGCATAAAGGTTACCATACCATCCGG | 0.923 |
| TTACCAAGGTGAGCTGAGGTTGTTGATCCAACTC | -0.269 |
| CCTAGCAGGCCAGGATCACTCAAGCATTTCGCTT | -0.395 |
| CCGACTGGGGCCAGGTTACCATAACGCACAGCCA | 0.152 |
| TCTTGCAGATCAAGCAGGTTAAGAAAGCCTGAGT | 0.157 |
| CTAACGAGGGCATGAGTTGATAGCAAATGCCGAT | 0.119 |

----------
System: PPARg DBDmut:RXRa IVT, anti-PPARg (DBD mutation: PPARg1 K132A/R137A, NR concentration 270 nM, RXRa partner concentration 90 nM)
Assay: PBM binding z-score (relative to random genomic background probes); higher = stronger binding; sequences stand for … in GC…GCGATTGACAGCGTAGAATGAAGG
sequences and their reported PBM binding z-score

| biosequence | PBM binding z-score |
| --- | --- |
| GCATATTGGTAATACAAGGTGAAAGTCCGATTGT | 1.13 |
| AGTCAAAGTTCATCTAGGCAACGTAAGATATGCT | 1.23 |
| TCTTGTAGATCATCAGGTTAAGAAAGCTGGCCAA | 1.16 |
| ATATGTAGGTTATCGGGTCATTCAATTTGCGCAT | 2.44 |
| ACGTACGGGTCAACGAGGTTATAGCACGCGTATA | 0.48 |
| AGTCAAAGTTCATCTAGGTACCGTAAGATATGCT | 2.26 |
| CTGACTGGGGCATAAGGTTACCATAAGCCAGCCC | 0.707 |
| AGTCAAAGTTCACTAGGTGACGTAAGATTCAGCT | 1.29 |
| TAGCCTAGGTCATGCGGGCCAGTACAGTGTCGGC | 0.187 |
| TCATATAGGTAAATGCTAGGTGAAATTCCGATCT | 0.621 |
| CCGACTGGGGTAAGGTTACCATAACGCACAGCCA | -0.489 |
| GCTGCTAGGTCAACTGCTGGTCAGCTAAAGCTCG | -0.67 |
| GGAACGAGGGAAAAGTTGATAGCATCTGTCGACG | -0.986 |
| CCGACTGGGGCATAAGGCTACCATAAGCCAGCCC | -1.08 |
| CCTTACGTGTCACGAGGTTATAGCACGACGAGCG | 0.0495 |
| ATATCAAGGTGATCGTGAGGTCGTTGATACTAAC | 1.01 |
| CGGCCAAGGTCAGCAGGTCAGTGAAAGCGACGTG | -0.746 |
| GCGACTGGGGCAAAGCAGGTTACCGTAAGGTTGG | -0.21 |
| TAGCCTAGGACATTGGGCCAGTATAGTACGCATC | -0.136 |
| TAGCCTAGGTCATGGGCGAGTATACCACGCGAAC | 0.096 |
| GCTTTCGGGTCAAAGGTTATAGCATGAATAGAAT | 1.23 |

----------
Test system: PPARg:RXRa (NR concentration 180 nM, RXRa partner concentration 90 nM)
Assay: PBM binding z-score (relative to random genomic background probes); higher = stronger binding; sequences stand for … in GC…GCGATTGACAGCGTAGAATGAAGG
Response field class: string, computed from recorded PBM binding z-score by ranges low bracket (below 0.6), middle bracket (0.6 to below 4), high bracket (4 or more)

| biosequence | study_system | answer_label |
| --- | --- | --- |
| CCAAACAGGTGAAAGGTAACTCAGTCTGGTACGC | PPARg:RXRa (NR concentration 180 nM, RXRa partner concentration 90 nM) | high bracket |
| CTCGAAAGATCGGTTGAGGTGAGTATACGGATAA | PPARg:RXRa (NR concentration 180 nM, RXRa partner concentration 90 nM) | low bracket |
| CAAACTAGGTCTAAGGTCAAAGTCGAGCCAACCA | PPARg:RXRa (NR concentration 180 nM, RXRa partner concentration 90 nM) | high bracket |
| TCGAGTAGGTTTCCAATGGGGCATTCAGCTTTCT | PPARg:RXRa (NR concentration 180 nM, RXRa partner concentration 90 nM) | low bracket |
| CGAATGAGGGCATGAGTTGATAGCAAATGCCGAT | PPARg:RXRa (NR concentration 180 nM, RXRa partner concentration 90 nM) | middle bracket |
| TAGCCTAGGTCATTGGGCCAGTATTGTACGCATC | PPARg:RXRa (NR concentration 180 nM, RXRa partner concentration 90 nM) | middle bracket |
| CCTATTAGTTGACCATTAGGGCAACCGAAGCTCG | PPARg:RXRa (NR concentration 180 nM, RXRa partner concentration 90 nM) | low bracket |
| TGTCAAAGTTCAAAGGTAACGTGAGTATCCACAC | PPARg:RXRa (NR concentration 180 nM, RXRa partner concentration 90 nM) | high bracket |
| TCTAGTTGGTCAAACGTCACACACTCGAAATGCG | PPARg:RXRa (NR concentration 180 nM, RXRa partner concentration 90 nM) | middle bracket |
| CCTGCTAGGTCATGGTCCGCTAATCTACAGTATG | PPARg:RXRa (NR concentration 180 nM, RXRa partner concentration 90 nM) | middle bracket |
| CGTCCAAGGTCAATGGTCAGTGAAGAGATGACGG | PPARg:RXRa (NR concentration 180 nM, RXRa partner concentration 90 nM) | high bracket |
| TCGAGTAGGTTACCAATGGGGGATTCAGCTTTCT | PPARg:RXRa (NR concentration 180 nM, RXRa partner concentration 90 nM) | middle bracket |
| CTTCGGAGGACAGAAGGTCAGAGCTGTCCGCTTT | PPARg:RXRa (NR concentration 180 nM, RXRa partner concentration 90 nM) | low bracket |
| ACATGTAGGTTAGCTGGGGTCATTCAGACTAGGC | PPARg:RXRa (NR concentration 180 nM, RXRa partner concentration 90 nM) | high bracket |
| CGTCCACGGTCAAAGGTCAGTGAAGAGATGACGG | PPARg:RXRa (NR concentration 180 nM, RXRa partner concentration 90 nM) | high bracket |
| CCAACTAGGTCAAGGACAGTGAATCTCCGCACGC | PPARg:RXRa (NR concentration 180 nM, RXRa partner concentration 90 nM) | high bracket |
| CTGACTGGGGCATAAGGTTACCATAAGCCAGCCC | PPARg:RXRa (NR concentration 180 nM, RXRa partner concentration 90 nM) | middle bracket |
| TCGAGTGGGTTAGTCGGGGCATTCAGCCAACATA | PPARg:RXRa (NR concentration 180 nM, RXRa partner concentration 90 nM) | low bracket |
| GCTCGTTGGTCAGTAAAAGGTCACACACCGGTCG | PPARg:RXRa (NR concentration 180 nM, RXRa partner concentration 90 nM) | middle bracket |
| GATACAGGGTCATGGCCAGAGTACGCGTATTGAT | PPARg:RXRa (NR concentration 180 nM, RXRa partner concentration 90 nM) | high bracket |
| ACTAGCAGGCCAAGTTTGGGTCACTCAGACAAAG | PPARg:RXRa (NR concentration 180 nM, RXRa partner concentration 90 nM) | low bracket |
| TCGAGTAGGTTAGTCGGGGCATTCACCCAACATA | PPARg:RXRa (NR concentration 180 nM, RXRa partner concentration 90 nM) | low bracket |
| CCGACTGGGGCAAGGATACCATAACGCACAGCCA | PPARg:RXRa (NR concentration 180 nM, RXRa partner concentration 90 nM) | middle bracket |
| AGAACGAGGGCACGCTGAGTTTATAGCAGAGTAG | PPARg:RXRa (NR concentration 180 nM, RXRa partner concentration 90 nM) | middle bracket |
